- Test system: L929
- method: Antiproliferative activity against mouse L929 cells
- Format: cell-based
# Lookup of reported GI50 keyed by entry
State the answer as a number, implicitly in µM.

Worked examples, 2 compounds total:
- compound: "COC1=CC(=O)C(=O)C(C[C@@]2(C)C3=C(CC[C@@H]2C)C(C)(C)CCC3)=C1OC (racemic)"
  value.units: "µM"
  measured: 73.4
- compound: "C=C1CC[C@@H]2C(C)(C)CCC[C@@]2(C)[C@@H]1CC1=C(O)C(=O)C=C(OC)C1=O (racemic)"
  value.units: "µM"
  measured: 20.9

Notebook: C=C1CC[C@H]2C(C)(C)CCC[C@]2(C)[C@H]1/C=C1\C=C2OCOC2=CC1=O (racemic) [SESQUITERPENE CYCLOHEXADIENONE] , GI50 read as 12.9

Notebook: COc1ccc(O)c(O)c1/C=C1\[C@@H](C)CC[C@H]2C(C)(C)CCC[C@]12C (racemic) [(+/-)-WIEDENDIOL B] , GI50 read as 63.1

###

# Lookup of reported GI50 keyed by entry
- Tested on: L929
- method: Antiproliferative activity against mouse L929 cells
- Type: cell-based
State the answer as a number, implicitly in µM.

- compound: "COc1c(C[C@H]2C(C)=CC[C@H]3C(C)(C)CCC[C@]23C)cc2c(c1C=O)OCO2 (racemic)"
  tested.on: "L929"
  GI50 [µM]: 24
- compound: "CC1=CC[C@H]2C(C)(C)CCC[C@]2(C)[C@H]1/C=C1\\C=C2OCOC2=CC1=O (racemic)"
  tested.on: "L929"
  GI50 [µM]: 6.2
- compound: "COC1=CC(=O)C(O)=C(/C=C2\\[C@@H](C)CC[C@H]3C(C)(C)CCC[C@]23C)C1=O (racemic)"
  tested.on: "L929"
  GI50 [µM]: 27.1
- compound: "COc1cccc2c1C(=O)c1c(O)c3c(c(O)c1C2=O)C[C@@](O)(C(=O)CO)C[C@@H]3O[C@H]1C[C@H](N)[C@H](O)[C@H](C)O1"
  tested.on: "L929"
  GI50 [µM]: 1.2
- compound: "COc1ccc(O)c(O)c1C[C@@]1(C)C2=C(CC[C@@H]1C)C(C)(C)CCC2 (racemic) [SESQUITERPENE HYDROQUINONE]"
  tested.on: "L929"
  GI50 [µM]: 59.9

Notebook: COC1=CC(=O)C(O)=C(C[C@@]2(C)C3=C(CC[C@@H]2C)C(C)(C)CCC3)C1=O (racemic) , GI50 read as 14

Notebook: `COC1=CC(=O)C(OC)=C(/C=C2\[C@@H](C)CC[C@H]3C(C)(C)CCC[C@]23C)C1=O` , GI50 read as 41.6

###

- Tested on: K562
- method: Antiproliferative activity against human K562 cells
- Format: functional
# Lookup of reported GI50 keyed by entry
State the answer as a number, implicitly in µM.

- compound: "COc1ccc(O)c(O)c1C[C@@]1(C)C2=C(CC[C@@H]1C)C(C)(C)CCC2 (racemic) [SESQUITERPENE HYDROQUINONE]"
  property.label: "GI50"
  value.units: "µM"
  measured: 25.6

Notebook: COc1c(C[C@H]2C(C)=CC[C@H]3C(C)(C)CCC[C@]23C)cc2c(c1C=O)OCO2 (racemic) [PROTECTED SIPHONODICTYAL C] , GI50 read as 21.1

Notebook: COC1=CC(=O)C(O)=C(C[C@@]2(C)C3=C(CC[C@@H]2C)C(C)(C)CCC3)C1=O (racemic) , GI50 read as 6.1

Notebook: CC1=CC[C@H]2C(C)(C)CCC[C@]2(C)[C@H]1/C=C1\C=C2OCOC2=CC1=O (racemic) , GI50 read as 3.5

Notebook: COc1ccc(O)c(O)c1/C=C1\[C@@H](C)CC[C@H]2C(C)(C)CCC[C@]12C (racemic) [(+/-)-WIEDENDIOL B] , GI50 read as 35.8

Notebook: C=C1CC[C@@H]2C(C)(C)CCC[C@@]2(C)[C@@H]1CC1=C(O)C(=O)C=C(OC)C1=O (racemic) , GI50 read as 8.4

Notebook: C=C1CC[C@H]2C(C)(C)CCC[C@]2(C)[C@H]1/C=C1\C=C2OCOC2=CC1=O (racemic) [SESQUITERPENE CYCLOHEXADIENONE] , GI50 read as 6.2

Notebook: COC1=CC(=O)C(=O)C(C[C@@]2(C)C3=C(CC[C@@H]2C)C(C)(C)CCC3)=C1OC (racemic) , GI50 read as 26.6

Notebook: COc1cccc2c1C(=O)c1c(O)c3c(c(O)c1C2=O)C[C@@](O)(C(=O)CO)C[C@@H]3O[C@H]1C[C@H](N)[C@H](O)[C@H](C)O1 [DOXORUBICIN] , GI50 read as 1

Notebook: `COC1=CC(=O)C(OC)=C(/C=C2\[C@@H](C)CC[C@H]3C(C)(C)CCC[C@]23C)C1=O` , GI50 read as 20.7

Notebook: COC1=CC(=O)C(O)=C(/C=C2\[C@@H](C)CC[C@H]3C(C)(C)CCC[C@]23C)C1=O (racemic) , GI50 read as 13.4

Values were extracted from ChEMBL document CHEMBL1152740.
